# Tested on: bFGF-induced angiogenesis
# METHOD SUMMARY: rat cornea micropocket method (angiogenesis inhibitory activity)
# Type: in vivo, Sprague-Dawley rats
# CONDITIONS: rats with angiogenesis inhibitory activity / rats tested; sample pellet 20 »g; judged after 10 days
QUANTITY: Inhibition rate

The observed Inhibition rate for CO[C@@H]1[C@H](OC(=O)N(CCN(C)C)C(C)=O)CC[C@]2(CO2)[C@H]1[C@@]1(C)O[C@@H]1CC=C(C)C [Example 57] when tested with bFGF-induced angiogenesis stands at 6/6

---
The observed Inhibition rate for C=C(C)C(=O)NC(=O)O[C@@H]1CC[C@]2(CO2)[C@@H]([C@@]2(C)O[C@@H]2CC=C(C)C)[C@@H]1OC [Example 33, O-Methacryloylcarbamoylfumagillol] when tested with bFGF-induced angiogenesis stands at 4/6

The observed Inhibition rate for CO[C@@H]1[C@H](OC(=O)NC(=O)CSC(C)=O)CC[C@]2(CO2)[C@H]1[C@@]1(C)O[C@@H]1CC=C(C)C [Example 41, O-Acetylthioacetylcarbamoylfumagillol] when tested with bFGF-induced angiogenesis stands at 2/4

###

# Test system: bFGF-induced angiogenesis
# METHOD SUMMARY: rat cornea micropocket method (angiogenesis inhibitory activity)
# Type: in vivo, Sprague-Dawley rats
# CONDITIONS: rats with angiogenesis inhibitory activity / rats tested; sample pellet 20 »g; judged after 10 days
# Description: The product compound (I) obtained in the examples given below were evaluated for angiogenesis inhibitory activity by the rat cornea micropocket method. Essentially the method of Gimbrone et al. [J. National Cancer Institute, 52, 413-419 (1974)] was followed. Thus, adult male Sprague-Dawley rats (11 to 16 weeks of age) were anesthetized with nembutal and locally anesthetized by instillation of xylocaine eyedrops onto the eyeball. […]
QUANTITY: Inhibition rate

// Inhibition rate value for CO[C@@H]1[C@H](OC(=O)NC(=O)CCl)CC[C@]2(CO2)[C@H]1[C@@]1(C)O[C@@H]1CCC(C)C [Example 51, O-Chloroacetylcarbamoyldihydrofumagillol] : 7/14

// Inhibition rate value for CO[C@@H]1[C@H](OC(=O)NC(=O)CSc2nc3ccccc3s2)CC[C@]2(CO2)[C@H]1[C@@]1(C)O[C@@H]1CC=C(C)C : 7/7

// Inhibition rate value for CO[C@@H]1[C@H](OC(=O)NC(C)=O)CC[C@]2(CO2)[C@H]1[C@@]1(C)O[C@@H]1CC=C(C)C : 7/7

// Inhibition rate value for CCN(CC)CC(=O)NC(=O)O[C@@H]1CC[C@]2(CO2)[C@@H]([C@@]2(C)O[C@@H]2CC=C(C)C)[C@@H]1OC : 7/7

// Inhibition rate value for CO[C@@H]1[C@H](OC(=O)NC(=O)CSc2ccncc2)CC[C@]2(CO2)[C@H]1[C@@]1(C)O[C@@H]1CC=C(C)C : 5/5

// Inhibition rate value for CO[C@@H]1[C@H](OC(=O)CCC(=O)O)CC[C@]2(CO2)[C@H]1[C@@]1(C)O[C@@H]1CC=C(C)C : 6/6

---
// Inhibition rate value for CO[C@@H]1[C@H](OC(N)=O)CC[C@]2(CO2)[C@H]1[C@@]1(C)O[C@@H]1CC=C(C)C : 6/8

// Inhibition rate value for CO[C@@H]1[C@H](OC(=O)Nc2ccc(Cl)cc2)CC[C@]2(CO2)[C@H]1[C@@]1(C)O[C@@H]1CC=C(C)C : 4/8

###

# Tested on: bFGF-induced angiogenesis
# METHOD SUMMARY: rat cornea micropocket method (angiogenesis inhibitory activity)
# Type: in vivo, Sprague-Dawley rats
# CONDITIONS: rats with angiogenesis inhibitory activity / rats tested; sample pellet 20 »g; judged after 10 days
# Inhibition rate annotations

// Inhibition rate value for CO[C@@H]1[C@H](OC(=O)NC(=O)C(Cl)(Cl)Cl)CC[C@]2(CO2)[C@H]1[C@@]1(C)O[C@@H]1CC=C(C)C : 5/6

// Inhibition rate value for CO[C@@H]1[C@H](OC(=O)c2ccccc2C(=O)O)CC[C@]2(CO2)[C@H]1[C@@]1(C)O[C@@H]1CC=C(C)C : 6/7

// Inhibition rate value for CO[C@@H]1[C@H](OC(=O)NC(=O)CSc2ccccn2)CC[C@]2(CO2)[C@H]1[C@@]1(C)O[C@@H]1CC=C(C)C : 6/6

// Inhibition rate value for CO[C@@H]1[C@H](OC(=O)NC(=O)CSc2nc3ccccc3o2)CC[C@]2(CO2)[C@H]1[C@@]1(C)O[C@@H]1CC=C(C)C : 4/6

---
// Inhibition rate value for CO[C@@H]1[C@H](OS(=O)(=O)c2ccc(C)cc2)CC[C@]2(CO2)[C@H]1[C@@]1(C)O[C@@H]1CC=C(C)C : 3/4

###

# Inhibition rate annotations
# Tested on: bFGF-induced angiogenesis
# METHOD SUMMARY: rat cornea micropocket method (angiogenesis inhibitory activity)
# Type: in vivo, Sprague-Dawley rats
# CONDITIONS: rats with angiogenesis inhibitory activity / rats tested; sample pellet 20 »g; judged after 10 days
# Method: The product compound (I) obtained in the examples given below were evaluated for angiogenesis inhibitory activity by the rat cornea micropocket method. Essentially the method of Gimbrone et al. [J. National Cancer Institute, 52, 413-419 (1974)] was followed. Thus, adult male Sprague-Dawley rats (11 to 16 weeks of age) were anesthetized with nembutal and locally anesthetized by instillation of xylocaine eyedrops onto the eyeball. […]

Some entries whose results are on file:
// Inhibition rate value for CO[C@@H]1[C@H](OC(=O)NN)CC[C@]2(CO2)[C@H]1[C@@]1(C)O[C@@H]1CC=C(C)C [Example 26, O-Carbazoylfumagillol] : 6/6

// Inhibition rate value for CO[C@@H]1[C@H](OS(C)(=O)=O)CC[C@]2(CO2)[C@H]1[C@@]1(C)O[C@@H]1CC=C(C)C [Example 21, O-Methylsulfonylfumagillol] : 4/4

Consider now this further compound.
// Inhibition rate value for COC1C(OC(=O)NC(=O)CSc2cc[n+](C)cc2)CCC2(CO2)C1C1(C)OC1CC=C(C)C (stereo not drawn) [Example 69] : 6/6

###

# System: bFGF-induced angiogenesis
# METHOD SUMMARY: rat cornea micropocket method (angiogenesis inhibitory activity)
# Type: in vivo, Sprague-Dawley rats
# CONDITIONS: rats with angiogenesis inhibitory activity / rats tested; sample pellet 20 »g; judged after 10 days
# Inhibition rate annotations

Some entries whose results are on file:
// Inhibition rate value for C=CC(=O)NC(=O)O[C@@H]1CC[C@]2(CO2)[C@@H]([C@@]2(C)O[C@@H]2CC=C(C)C)[C@@H]1OC [Example 58, O-Acryloylcarbamoylfumagillol] : 6/6

// Inhibition rate value for CO[C@@H]1[C@H](OC(=O)NC(=O)c2ccccc2)CC[C@]2(CO2)[C@H]1[C@@]1(C)O[C@@H]1CC=C(C)C [Example 32, O-Benzoylcarbamoylfumagillol] : 9/12

---
// Inhibition rate value for CO[C@@H]1[C@H](OC)CC[C@]2(CO2)[C@H]1[C@@]1(C)O[C@@H]1CC=C(C)C [Example 14, O-Methylfumagillol] : 4/8

###

# System: bFGF-induced angiogenesis
# METHOD SUMMARY: rat cornea micropocket method (angiogenesis inhibitory activity)
# Type: in vivo, Sprague-Dawley rats
# CONDITIONS: rats with angiogenesis inhibitory activity / rats tested; sample pellet 20 »g; judged after 10 days
QUANTITY: Inhibition rate

Some entries whose results are on file:
// Inhibition rate value for CO[C@@H]1[C@H](OCc2ccc(Br)cc2)CC[C@]2(CO2)[C@H]1[C@@]1(C)O[C@@H]1CC=C(C)C [Example 18, O-(p-Bromobenzyl)fumagillol] : 7/7

// Inhibition rate value for CO[C@@H]1[C@H](OC(=O)NCCN(C)C)CC[C@]2(CO2)[C@H]1[C@@]1(C)O[C@@H]1CC=C(C)C [Example 28] : 11/11

// Inhibition rate value for CO[C@@H]1[C@H](OC(=O)Nc2ccc(F)cc2F)CC[C@]2(CO2)[C@H]1[C@@]1(C)O[C@@H]1CC=C(C)C [Example 37] : 11/11

// Inhibition rate value for CO[C@@H]1[C@H](OC(=O)NC(=O)C(Cl)Cl)CC[C@]2(CO2)[C@H]1[C@@]1(C)O[C@@H]1CC=C(C)C [Example 30, O-Dichloroacetylcarbamoylfumagillol] : 4/8

// Inhibition rate value for CCOC(=O)NC(=O)OC1CCC2(CO2)C(C2(C)OC2CC=C(C)C)C1OC (centres unmarked) [Example 70] : 5/5

---
// Inhibition rate value for COC1C(OC(=O)NC(=O)CSc2cnn[nH]2)CCC2(CO2)C1C1(C)OC1CC=C(C)C (centres unmarked) [Example 67] : 5/5

// Inhibition rate value for CO[C@@H]1[C@H](OC(=O)NC(=O)COC(C)=O)CC[C@]2(CO2)[C@H]1[C@@]1(C)O[C@@H]1CC=C(C)C [Example 40, O-Acetoxyacetylcarbamoylfumagillol] : 6/6

// Inhibition rate value for CO[C@@H]1[C@H](OC(=O)NC(=O)CSc2nc3ccccc3[nH]2)CC[C@]2(CO2)[C@H]1[C@@]1(C)O[C@@H]1CC=C(C)C [Example 61] : 7/7

// Inhibition rate value for CO[C@@H]1[C@H](OC(=O)NC(=O)CSc2nnc(C)s2)CC[C@]2(CO2)[C@H]1[C@@]1(C)O[C@@H]1CC=C(C)C [Example 53] : 8/8

// Inhibition rate value for CO[C@@H]1[C@H](OC(=O)NC(=O)CSc2cccc3ccccc23)CC[C@]2(CO2)[C@H]1[C@@]1(C)O[C@@H]1CC=C(C)C [Example 54] : 5/5

// Inhibition rate value for CO[C@@H]1[C@H](OC(=O)NS(=O)(=O)c2ccc(C)cc2)CC[C@]2(CO2)[C@H]1[C@@]1(C)O[C@@H]1CC=C(C)C [Example 38, O-(p-Toluenesulfonylcarbamoyl)fumagillol] : 13/15

// Inhibition rate value for COC1C(OC(=O)NC(=O)NC(=O)c2ccccc2)CCC2(CO2)C1C1(C)OC1CC=C(C)C (centres unmarked) [Example 75, O-(N'-Benzoylallophanoyl)fumagillol] : 8/8
